Values from PubChem BioAssay AID624304

protocol_notes: gst-4 reporter inhibition in live C. elegans – whole organism, uHTS, GFP/RFP fluorescence ratio, strain VP596, SKN-1 inhibitor project, primary screen (AID 624304)
test_settings: C. elegans VP596 Pgst-4::GFP/RFP ratio, acrylamide-induced, 24 h; at 21.8 µM
In all, about 360,000 compounds went through this assay and about 1,800 (0.5%) were called active.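 The calls were made as follows: active = interference check ratio from 0.5 to 1.5 plus GFP to RFP signal ratio inhibition reaching or exceeding a fixed threshold (cut at about 30% in these data, passing the limit was not always enough); inactive = the rest.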 The sample as a whole holds a higher share of actives than the screen did.
Possible outcomes: active, inactive

>  <smiles_input>
CCCc1cc(C(=O)Nc2ccc(Cl)cn2)cs1

>  <class_label>
active

$$$$
>  <smiles_input>
Cc1cc(C(=O)COc2ccccc2[N+](=O)[O-])c(C)n1-c1cccc(S(=O)(=O)N2CCOCC2)c1

>  <class_label>
inactive

$$$$
>  <smiles_input>
COc1ccc(C(=O)N/N=C(\C)CC(=O)Nc2ccc(Cl)cn2)cc1

>  <class_label>
inactive

$$$$
>  <smiles_input>
O=C(CSc1ccccc1)Nc1cccc(S(=O)(=O)N2CCCCC2)c1

>  <class_label>
inactive

$$$$
>  <smiles_input>
O=C(C1CCN(S(=O)(=O)c2cnc[nH]2)CC1)N1CCN(Cc2ccc3c(c2)OCO3)CC1

>  <class_label>
inactive

$$$$
